# target_or_test_system: Sterol O-acyltransferase 1 (Rattus norvegicus, UniProt O70536)
# assay_notes: In vitro inhibitory concentration against acyl coenzyme A:cholesterol acyltransferase derived from rat adrenals
Quick rule for you: IC50 under 8 µM gets true (1), anything else gets false (0).

Reference set, count: 5
smiles_structure	group_label
Cc1ccc(NC(=O)N(CCC(C)C)CCC(C)C)c(C)c1	true (1)
CCCCN(Cc1ccccc1)C(=O)Nc1ccc(C)cc1C	true (1)
O=C(Nc1cccc(Cl)c1)N(Cc1ccccc1)Cc1ccccc1	true (1)
CCCCN(CCCC)C(=O)Nc1ccc(C)cc1C	false (0)
CCCCN(CCCC)C(=O)Nc1ccc(F)c(Cl)c1	false (0)

Does this compound meet the criterion IC50 < 8 µM? "CCCCN(Cc1ccc2c(c1)OCO2)C(=O)Nc1ccc(C)cc1C"
true (1)

---

# target_or_test_system: Sterol O-acyltransferase 1 (Rattus norvegicus)
# assay_notes: Serum hypolipidemic activity in rats
# Type: functional
measured_parameter: SS
Record the result as a number with its unit.

Worked examples follow.
smiles_structure	endpoint_value
CCCCN(CCCC)C(=O)Nc1ccc(C)cc1C	81%
Cc1ccc(NC(=O)N(CCCCC2CCCCC2)CCCCC2CCCCC2)c(C)c1	80%

So the reported SS for "CCCCN(CCCC)C(=O)Nc1ccccc1C" , on Sterol O-acyltransferase 1 (Rattus norvegicus), turned out to be 81%

---

Attribute: LS
# target_or_test_system: Sterol O-acyltransferase 1 (Rattus norvegicus) (UniProt O70536)
# Sequence (O70536 whole entry): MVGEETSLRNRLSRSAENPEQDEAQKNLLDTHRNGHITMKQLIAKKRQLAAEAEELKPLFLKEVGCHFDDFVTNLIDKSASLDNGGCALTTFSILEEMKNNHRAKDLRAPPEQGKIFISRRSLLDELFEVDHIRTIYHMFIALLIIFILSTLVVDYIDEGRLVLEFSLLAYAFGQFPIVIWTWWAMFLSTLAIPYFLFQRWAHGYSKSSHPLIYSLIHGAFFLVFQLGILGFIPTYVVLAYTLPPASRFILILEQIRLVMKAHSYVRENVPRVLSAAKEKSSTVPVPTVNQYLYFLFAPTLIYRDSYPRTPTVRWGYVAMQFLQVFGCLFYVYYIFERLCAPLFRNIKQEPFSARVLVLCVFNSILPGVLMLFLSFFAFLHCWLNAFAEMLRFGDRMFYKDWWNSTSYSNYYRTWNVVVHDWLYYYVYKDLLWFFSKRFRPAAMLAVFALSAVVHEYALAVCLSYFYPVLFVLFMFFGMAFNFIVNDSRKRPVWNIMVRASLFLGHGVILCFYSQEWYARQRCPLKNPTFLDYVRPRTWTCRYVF
# assay_notes: Liver hypolipidemic activity in rats
# Type: functional
Write down the numeric answer in % and omit the unit.

Worked examples follow.
smiles_structure	scale_unit	LS
Cc1ccc(NC(=O)Nc2ccc(C)cc2C)c(C)c1	%	85
CCCCCCCN(Cc1ccco1)C(=O)Nc1c(Cl)cc(Cl)cc1Cl	%	34
CCCCN(CCCC)C(=O)Nc1cccc(Cl)c1	%	100
CCCCN(Cc1ccccc1)C(=O)Nc1ccc(C(=O)O)cc1C	%	88

Lookup result for "CCCCN(CCCC)C(=O)Nc1cccc(C(F)(F)F)c1" ; measured LS: 91

---

# target_or_test_system: Sterol O-acyltransferase 1 (Rattus norvegicus) (UniProt O70536)
# assay_notes: Liver hypolipidemic activity in rats
# Format: functional
Using LS as the sorting value, the categories are category 1: < 60%; category 2: ≥ 60% and < 90%; category 3: ≥ 90%

Reference set, count: 5
compound	target_or_test_system	group_label
Cc1c(Cl)cccc1NC(=O)N(CCC(C)(C)C)Cc1cccs1	Sterol O-acyltransferase 1 (Rattus norvegicus) (UniProt O70536)	category 2
Cc1cc(C)c(NC(=O)N(Cc2ccccc2)Cc2ccccc2)cc1C	Sterol O-acyltransferase 1 (Rattus norvegicus) (UniProt O70536)	category 1
CCCCN(CCCC)C(=O)Nc1ccc(C)cc1C	Sterol O-acyltransferase 1 (Rattus norvegicus) (UniProt O70536)	category 2
CCCCN(Cc1ccccc1)C(=O)Nc1c(Cl)cc(Cl)cc1Cl	Sterol O-acyltransferase 1 (Rattus norvegicus) (UniProt O70536)	category 1
CCCCCCCCCCN(CCCCCCCCCC)C(=O)Nc1ccc(C)cc1C	Sterol O-acyltransferase 1 (Rattus norvegicus) (UniProt O70536)	category 2

Would you mind sorting "CCCCN(Cc1ccccc1)C(=O)Nc1ccccc1C" into the appropriate category?
category 3

---

# target_or_test_system: UniProt:O70536
# assay_notes: In vitro percentage inhibition against Acyl coenzyme A:cholesterol acyltransferase derived from rat adrenals
# Design: concentration or dose not given beside the values
# run_conditions: concentration not given here
// not met strictly below 60% in inhibition; met otherwise

Please check the record "CSc1ccc(NC(=O)N(Cc2ccccc2)Cc2ccccc2)cc1" and state if its inhibition is at or above 60%.
met

Please check the record "CCCCN(CCCC)C(=O)Nc1ccc([N+](=O)[O-])cc1" and state if its inhibition is at or above 60%.
met

Please check the record "COc1ccc(C)cc1NC(=O)N(Cc1ccccc1)Cc1ccccc1" and state if its inhibition is at or above 60%.
met

Please check the record "C#CCN(CC#C)C(=O)Nc1ccc(C)cc1C" and state if its inhibition is at or above 60%.
not met

Please check the record "CCCCCCCCCCCCN(CCCCCCCCCCCC)C(=O)Nc1ccc(C)cc1C" and state if its inhibition is at or above 60%.
not met

Please check the record "Cc1cccc(C)c1NC(=O)N(Cc1ccccc1)Cc1ccccc1" and state if its inhibition is at or above 60%.
not met

---

# target_or_test_system: Sterol O-acyltransferase 1 (Rattus norvegicus)
# assay_notes: Liver hypolipidemic activity in rats
# Format: functional
Attribute: LS
Write down the numeric answer in % and omit the unit.

Lookup result for "CCCCCCCCCCCCN(CCCCCCCCCCCC)C(=O)Nc1ccc(C)cc1C" ; measured LS: 120

Lookup result for "CCCCCN(CCCCC)C(=O)Nc1ccc(C)cc1C" ; measured LS: 49

Lookup result for "O=C(Nc1ccc(Oc2ccccc2)cc1)N(Cc1ccccc1)Cc1ccccc1" ; measured LS: 89

---

# target_or_test_system: Sterol O-acyltransferase 1 (Rattus norvegicus)
# assay_notes: Liver hypolipidemic activity in rats
# Assay type: functional
measured_parameter: LS

compound	endpoint_value
CCCCCCCCN(CCCCCCCC)C(=O)Nc1ccc(C)cc1C	22%
CCCCc1ccc(NC(=O)N(CCCC)CCCC)cc1	100%
CCCCN(CCCC)C(=O)Nc1cc(C)ccc1C	110%
COc1ccc(C)cc1NC(=O)N(Cc1ccccc1)Cc1ccccc1	44%
CCOC(=O)c1ccc(NC(=O)N(Cc2ccccc2)Cc2ccccc2)cc1	83%

Lookup result for "CCCCCCCN(Cc1cccs1)C(=O)Nc1cc(Cl)c(Cl)cc1Cl" ; measured LS: 28%

---

# target_or_test_system: Sterol O-acyltransferase 1 (Rattus norvegicus) (UniProt O70536)
# assay_notes: Liver hypolipidemic activity in rats
# Type: functional
Attribute: LS
Write down the numeric answer in % and omit the unit.

Worked examples follow.
compound	measured_parameter	endpoint_value
CCCCN(CCCC)C(=O)Nc1ccc(C)c(Cl)c1	LS	98
CCCCN(CCCC)C(=O)Nc1ccc(OC)cc1	LS	109
CCCCCCCC/C=C/CCCCCCCCN(Cc1ccc(CCCC)cc1)C(=O)Nc1ccc(C)cc1C (stereo in doubt; 161)	LS	87
CCCCN(CCCC)C(=O)Nc1cccc(C(C)=O)c1	LS	100
O=C(Nc1ccc(Cl)cc1C(F)(F)F)N(Cc1ccccc1)Cc1ccccc1	LS	57

So the reported LS for "CC(C)(C)CCN(Cc1cccs1)C(=O)Nc1c(Cl)cc(Cl)cc1Cl" , on Sterol O-acyltransferase 1 (Rattus norvegicus) (UniProt O70536), turned out to be 56

So the reported LS for "CCCCc1ccc(NC(=O)N(Cc2ccccc2)Cc2ccccc2)cc1" , on Sterol O-acyltransferase 1 (Rattus norvegicus) (UniProt O70536), turned out to be 87

So the reported LS for "CCCCN(Cc1ccccc1)C(=O)Nc1cc(C)cc(C)c1" , on Sterol O-acyltransferase 1 (Rattus norvegicus) (UniProt O70536), turned out to be 75

So the reported LS for "CCCCN(CC(c1ccc(Cl)cc1)c1ccc(Cl)cc1)C(=O)Nc1ccc(C)cc1C" , on Sterol O-acyltransferase 1 (Rattus norvegicus) (UniProt O70536), turned out to be 84

So the reported LS for "CCCCN(CCCC)C(=O)Nc1ccc(F)c(Cl)c1" , on Sterol O-acyltransferase 1 (Rattus norvegicus) (UniProt O70536), turned out to be 108

---

# target_or_test_system: Sterol O-acyltransferase 1 (Rattus norvegicus)
# assay_notes: Liver hypolipidemic activity in rats
# Type: functional
Attribute: LS
Write down the numeric answer in % and omit the unit.

smiles_structure	target_or_test_system	scale_unit	LS
CCCCCCN(CCCCCC)C(=O)Nc1ccc(C)cc1C	Sterol O-acyltransferase 1 (Rattus norvegicus)	%	36

So the reported LS for "Cc1cc(C)c(NC(=O)N(Cc2ccccc2)Cc2ccccc2)c(C)c1" , on Sterol O-acyltransferase 1 (Rattus norvegicus), turned out to be 28

So the reported LS for "CCCCN(CCCC)C(=O)Nc1cc(Cl)c(Cl)cc1Cl" , on Sterol O-acyltransferase 1 (Rattus norvegicus), turned out to be 103

So the reported LS for "CCCCCCCN(Cc1ccco1)C(=O)Nc1cc(C)c(C)cc1C" , on Sterol O-acyltransferase 1 (Rattus norvegicus), turned out to be 38
